Measured protein stability index by item
B1: GAGE1 (parent)
chain: QPPEMIGPMRPEQFSDEVEPATPE

Variants of: B1
protocol: protein stability index of a GFP-peptide fusion (GPS, HEK-293T) (PSI 1-6); higher = more stable;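 also: lentivirally expressed fusions sorted by FACS into six bins by GFP to DsRed ratio, PSI derived from sequencing read proportions per bin multiplied by bin number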
experimentalConditions: c terminus: a fixed tail appended

# alteration, protein stability index
data = [
    ("V18S", 5.44),
    ("P11Q", 5.34),
    ("R10D", 3.42),
    ("P8Y", 4.92),
    ("M5I", 4.57),
    ("E24L", 4.09),
    ("P11T", 5.61),
    ("R10H", 5.2),
    ("M5Y", 4.99),
    ("S15W", 4.8),
    ("Q13L", 5.64),
    ("A21M", 5.17),
    ("I6E", 5.81),
    ("M5D", 5.02),
    ("Q1S", 4.89),
    ("F14H", 5.46),
    ("M5V", 4.27),
    ("P23H", 5),
    ("F14Y", 4.75),
    ("Q13P", 5.91),
    ("F14P", 5.84),
    ("P3K", 5.64),
]
